test system: metallo-beta-lactamase IMP-1 (Pseudomonas aeruginosa); assay: IMP-1 metallo-beta-lactamase inhibitors, primary screen, biochemical, epi-absorbance readout, Pseudomonas aeruginosa enzyme (AID 1556); conditions: purified IMP-1, nitrocefin hydrolysis, epi-absorbance fluorescence; at 5.6 µM; stronger effect = higher value;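 note: 0% = IMP-1 with DMSO and 100% = DMSO wells lacking enzyme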
The whole screen tested about 290,000 compounds, of which about 1,300 (0.45%) were called active. What follows is part of a selection rich in actives, with near analogues and random picks from the rest.
In this section we review reported inhibition values for a set of compounds.
# output: bare number, implied unit %

Take a look at these entries with their results.
* COC(=O)c1cc(C(=O)NC(C)C2CC3CCC2C3)cc([N+](=O)[O-])c1 (stereo not given) | -3.23
* O=C(CNC(=O)c1ccccc1F)c1ccc(Br)cc1 | -2.02
* Cc1sc2ncn(CC(=O)NCCCC(=O)N(C)Cc3ccccc3)c(=O)c2c1C | -3.46
* O=C(c1ccccc1)N1N=C(c2ccccc2O)CC1c1ccc(Br)cc1 (stereo not given) | -4.1

Field: inhibition (metallo-beta-lactamase IMP-1 (Pseudomonas aeruginosa)). Entry: CCOC(=O)C1=C(c2ccccc2)NC(=O)NC1c1cc(OC)c(OC)cc1OC (stereo not given)
-2.08

---

test system: metallo-beta-lactamase IMP-1 (Pseudomonas aeruginosa); assay: IMP-1 metallo-beta-lactamase inhibitors, primary screen, biochemical, epi-absorbance readout, Pseudomonas aeruginosa enzyme (AID 1556); conditions: purified IMP-1, nitrocefin hydrolysis, epi-absorbance fluorescence; at 5.6 µM;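 note: 0% = IMP-1 with DMSO and 100% = DMSO wells lacking enzyme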
About 1,300 (0.45%) of roughly 290,000 compounds were called active.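 The calls were made as follows: active = inhibition above the mean plus 3 SD of all compounds in the same screening run (cut at about 4.5% in these data); inactive = the rest.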 This excerpt belongs to a sample that is enriched for actives.
Hi there, use one of these labels in your reply, thanks! label 1 for active, label 0 for inactive

// known answers, use as guide
* CCc1ccccc1N(CC(=O)NCC1CCCO1)C(=O)CCC(=O)Nc1nccs1 (configuration not stated) | label 0
* Cc1ccccc1Nc1nnc(SCC(=O)c2cc3ccccc3o2)s1 | label 1
* C[n+]1ccc(/C=C/c2c[nH]c3ccccc23)cc1 | label 1
* O=C(N/N=C/c1c[nH]c2ccccc12)c1ccccc1O | label 0

Assay result, entry CCOC(=O)c1csc(NC(=O)Nc2cccc(OC)c2)n1 — outcome?
label 1

Entry Cc1cc(C)c2cc(CN(Cc3nnnn3Cc3ccc(F)cc3)C3CCCC3)c(=O)[nH]c2c1 please
label 1

Entry COc1ccc(OC)c(S(=O)(=O)N2CCCC(C(=O)NCCc3ccccc3)C2)c1 (configuration not stated) please
label 0

Entry COc1cccc(CNS(=O)(=O)c2ccc3c(c2)N(C(C)=O)CCS3)c1 please
label 0

Entry CCOC(=O)c1cnc(SCC(=O)Nc2cccc(OC)c2)nc1N please
label 0

---

system: metallo-beta-lactamase IMP-1 (Pseudomonas aeruginosa); assay: IMP-1 metallo-beta-lactamase inhibitors, primary screen, biochemical, epi-absorbance readout, Pseudomonas aeruginosa enzyme (AID 1556); conditions: purified IMP-1, nitrocefin hydrolysis, epi-absorbance fluorescence; at 5.6 µM; stronger effect = higher value;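 note: 0% = IMP-1 with DMSO and 100% = DMSO wells lacking enzyme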
In all, about 290,000 compounds went through this assay and about 1,300 (0.45%) were called active. The entries come from a sample that favours actives as a whole.
ASSAY READOUT: inhibition (%)
# output: bare number, implied unit %

Take a look at these entries with their results.
* CC(C)(C)OC(=O)NCCCCCC(=O)N/N=C/c1coc2ccccc2c1=O | -0.81
* CCCCc1ccc(NC(=O)NCc2cccnc2)cc1 | -2.87
* O=C(N/N=C/c1coc2ccccc2c1=O)c1cc2ccccc2o1 | -0.92

// query inhibition value for entry Cc1nn(-c2cc(Cl)ccc2N)c(=O)c2ccccc12
-2.53

Entry Cc1ccccc1NC(=O)CSc1ccc2nnc(-c3ccccn3)n2n1 please
-1.21

Entry Cc1ccc2occ(/C=N/NC(=O)c3ccccc3C)c(=O)c2c1 please
4.69

---

system: metallo-beta-lactamase IMP-1 (Pseudomonas aeruginosa); experiment: IMP-1 metallo-beta-lactamase inhibitors, primary screen, biochemical, epi-absorbance readout, Pseudomonas aeruginosa enzyme (AID 1556); settings: purified IMP-1, nitrocefin hydrolysis, epi-absorbance fluorescence; at 5.6 µM;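 note: 0% = IMP-1 with DMSO and 100% = DMSO wells lacking enzyme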
In all, about 290,000 compounds went through this assay and about 1,300 (0.45%) were called active.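 The calls were made as follows: active = inhibition above the mean plus 3 SD of all compounds in the same screening run (cut at about 4.5% in these data); inactive = the rest.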 This is one part of a sample in which actives are shown more often than they occur.
Hi there, use one of these labels in your reply, thanks! active, inactive

// known answers, use as guide
• COc1ccc2c(c1)c1nc3n(c(=O)c1n2CC(=O)Nc1ccccc1)CCS3 = inactive
• c1ccc(-c2nccc(-c3ccc(-n4cnc5ccccc54)cc3)n2)nc1 = active
• COc1ccc(CC(NC(C)=O)C(=O)NC2CCN(C(=O)C3CC3)CC2)cc1OC (stereo unspecified) = inactive

Assay result, entry CCN(c1ccccc1)S(=O)(=O)c1cc2c(cc1C)n(C)c(=O)c(=O)n2C — outcome?
inactive

Entry Cc1ccc(CNC(=O)C(=O)c2cn(CC(=O)N3CCOCC3)c3ccccc23)cc1 please
inactive

Entry COc1ccc(C(=O)Nc2ccc(-n3nncc3C(C)(C)C)cc2)cc1 please
inactive

Entry O=C(Nc1ccc([N+](=O)[O-])cc1)C1CC12CCC2 (stereo unspecified) please
inactive

Entry N#Cc1cccc(CN2CCC(=O)N(CCO)CC2)c1 please
inactive

Entry Cc1ccc(Oc2nc(-c3ccccn3)nc3ccccc23)cc1 please
inactive

Entry COc1ccc(C(=O)/C=C/Nc2ccccn2)cc1 please
active

Entry COc1ccc(/C=N/Nc2ccccc2C(=O)O)cc1 please
inactive

---

tested on: metallo-beta-lactamase IMP-1 (Pseudomonas aeruginosa); assay: IMP-1 metallo-beta-lactamase inhibitors, primary screen, biochemical, epi-absorbance readout, Pseudomonas aeruginosa enzyme (AID 1556); details: purified IMP-1, nitrocefin hydrolysis, epi-absorbance fluorescence; at 5.6 µM;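 note: 0% = IMP-1 with DMSO and 100% = DMSO wells lacking enzyme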
The campaign covered roughly 290,000 compounds. About 1,300 (0.45%) were called active.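 How the source made its calls: active means inhibition above the mean plus 3 SD of all compounds in the same screening run (cut at about 4.5% in these data); inactive means the rest.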 The full list was thinned out, with actives kept by preference.
Hi there, use one of these labels in your reply, thanks! Y (active), N (inactive)

// known answers, use as guide
• Cc1snc(SCc2c(F)cccc2Cl)c1C#N = N
• O=C(Nc1ccccc1Cc1ccccc1)c1ccc2c(c1)SC1=NS(=O)(=O)CCN12 = N
• O=S(=O)(Cc1cc(Cl)nc(-c2cccnc2)n1)c1ccccc1 = N

Assay result, entry N#Cc1c(Cl)nc(-c2cccnc2)nc1-c1ccccc1 — outcome?
Y

Entry N#Cc1ccc(-c2nc3cc(C#N)c(C#N)cc3nc2-c2ccccc2)cc1C#N please
N

---

system: metallo-beta-lactamase IMP-1 (Pseudomonas aeruginosa); assay: IMP-1 metallo-beta-lactamase inhibitors, primary screen, biochemical, epi-absorbance readout, Pseudomonas aeruginosa enzyme (AID 1556); details: purified IMP-1, nitrocefin hydrolysis, epi-absorbance fluorescence; at 5.6 µM; stronger effect = higher value;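 note: 0% = IMP-1 with DMSO and 100% = DMSO wells lacking enzyme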
Out of some 290,000 compounds screened, about 1,300 (0.45%) were called active. The sample holds actives, similar compounds and a random draw of the others, so the mix is not that of the screen.
ASSAY READOUT: inhibition (%)
# output: bare number, implied unit %

// query inhibition value for entry Clc1ccc(C2=CSC3=Nc4cccc5cccc(c45)N23)cc1
5.6

Entry CCCN(CCC)c1nc2c(C)cccn2c(=O)c1/C=C1/SC(=S)N(Cc2ccco2)C1=O please
7.59

Entry Cc1ccc(C(=O)NCC(=O)NCc2cc(=O)n(C)c(=O)n2C)cc1 please
-0.88

Entry CS(=O)(=O)c1sc2nc(-c3ccccc3)cc(-c3ccccc3)c2c1N please
5.43

Entry Oc1ccc(Br)cc1C=Nc1ccc2[nH]ncc2c1 please
-1.06

Entry N#C/C(=C\c1cccnc1)C(=O)Nc1ccc(SC(F)F)cc1 please
-1.66

Entry Cc1cccn2c(=O)c(/C=C3\SC(=S)N(CC(C)C)C3=O)c(NCCCOC(C)C)nc12 please
-1.23

Entry Nc1nc(-c2ccccc2)cc(-c2ccccc2)n1 please
-4.04

Entry COc1cc(Br)cc(/C=N/c2ncn[nH]2)c1O please
7.88

Entry CCOC(=O)CC1C(=O)NCCN1c1nc2c(C)cccn2c(=O)c1/C=C1\SC(=S)N(C(C)CC)C1=O (stereo unspecified) please
-2.03

Entry COc1ccc(Br)cc1/C=N/n1c(C)nnc1C please
-3.22

---

test system: metallo-beta-lactamase IMP-1 (Pseudomonas aeruginosa); assay: IMP-1 metallo-beta-lactamase inhibitors, primary screen, biochemical, epi-absorbance readout, Pseudomonas aeruginosa enzyme (AID 1556); settings: purified IMP-1, nitrocefin hydrolysis, epi-absorbance fluorescence; at 5.6 µM; stronger effect = higher value;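 note: 0% = IMP-1 with DMSO and 100% = DMSO wells lacking enzyme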
Hit rate of the full screen: of about 290,000 compounds, about 1,300 (0.45%) were called active. This excerpt belongs to a sample that is enriched for actives.
ASSAY READOUT: inhibition

Take a look at these entries with their results.
- Cc1nn(C)cc1N1C(=O)c2cccc3c(N)ccc(c23)C1=O: 22.2% (active)
- CCOc1ccc(-n2c(SCC(=O)OC)nc3sc4c(c3c2=O)CCN(C)C4)cc1: 1.15% (inactive)
- CC(=O)Nc1ccccc1Sc1ccc2c3c(cccc13)C(=O)N(c1ccc(C)cc1)C2=O: -1.41% (inactive)
- CCOC(CNC(=O)C1CCN(S(=O)(=O)c2ccc3nc4c(c(C(=O)O)c3c2)CC(C)CC4)CC1)OCC (stereo not given): -0.25% (inactive)

// query inhibition value for entry CC(=O)N1c2ccc(S(=O)(=O)N3CCC(C(=O)NCc4ccc(F)cc4)CC3)cc2CC1C (stereo not given)
-3.57% (inactive)

Origin of values: PubChem BioAssay AID1556
